As shown below, each of these compounds has a reported melting point value.

Look over these answered cases.
Compound	Data value
CC(C)CC(C#N)NC(=O)C1CCCCC1NC(=O)OCc1ccccc1 (stereo not drawn)	104 to 106 °C
ClC(Cl)(Oc1ccccc1)Oc1ccccc1	42 to 44 °C

Kindly review the next compound as well.
Memo: `CCOC(=O)C(=O)NNc1ccc(NC(=S)NC)cc1` , reported melting point: 168 to 169 °C

* * *

Measured quantity: melting point

Look over these answered cases.
O=C(Nc1ccc2ccc(Oc3ccccc3)nc2n1)C1CC1 190 °C
CCCCCCCC1=CC(=O)N(Cc2ccccc2)C1=CBr 52 to 55 °C
CCOC(=O)c1[nH]c(=O)sc1Br 121 °C
COC(=O)c1ccc(F)cc1C#N 92 to 93 °C
Cc1nn(-c2ccc(Cl)cc2)c(C)c1C(=O)N[C@H](C)[C@](O)(Cn1cncn1)c1ccc(F)cc1F 144 to 145 °C
Cc1nc2cccc3n(CCCNS(C)(=O)=O)c(=O)c1n23 184 to 185 °C
c1ccc2c(c1)Cc1c(-c3ccsc3)n[nH]c1-2 219 to 220 °C
CCOCc1nc2c(N)nc3cccnc3c2n1CCCCCC(N)=O 215 to 217 °C
CCC(=O)c1sc(SC)c2c1CCc1cnn(C)c1-2 119 to 120 °C
CCCc1cc(O)c(C#N)s1 78 °C

Memo: `COC(=O)c1nc2n(c1C(=O)OC)-c1ccc(Cl)cc1C(c1ccccc1F)=NC2` , reported melting point: 206 to 207 °C

Memo: `CC1(C)OC(=O)Nc2cc(-c3cccc(Cl)c3)sc21` , reported melting point: 123 to 125 °C

Memo: `COC(=O)c1ccc2cc(-c3ccc(OCCCO)c(C45CC6CC(CC(C6)C4)C5)c3)ccc2c1` , reported melting point: 202 °C

Memo: `COc1ccc(NC(=N)N2CCCCC2)c(-c2ccccc2)c1` , reported melting point: 155 °C
